Known %Inh of a selection of molecules
system: CDKL1; settings: concentration: 1 μM, replicates: in singlicate; n = 1;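 note: KINOMEscan kinase panel screen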
Response body: numeric value in %, unit text excluded.

molecule	%Inh, %
O=C1NC(=O)C(c2ccc(Cl)cc2)=C1Nc1ccc(O)cc1 [SB-340867]	12

Provide value of %Inh for this record tested with CDKL1: CCn1c(-c2c(N)noc2C)nc2cnccc21 [SB-737856] 17

// query: CC(=O)c1c(C)c2cnc(Nc3ccc(N4CCNCC4)cn3)nc2n(C2CCCC2)c1=O 0

COC(=O)C(Cc1ccccc1)NC(=O)NC1CCN(c2ccnc(Nc3ccc(F)cc3)n2)C1 (centres unmarked) [GSK1379714] ? 8

Try this molecule next: Cc1ccccc1-c1cc(-c2c[nH]nc2-c2ccccn2)ccn1 [GW680061] 0
